System: Wheat and Barley and weed species
Test: Post-Emergent Test III: postemergent herbicidal activity in wheat and barley, visual rating after 21 d and probit GR20/GR50/GR80/GR90 (Tables 9-13)
Type: in vivo
Conditions: MATCH wild chamomile (Matricaria recutita L.); growth reduction of 50%; probit analysis
Reported GR50 MATCH values follow for various compounds

Worked examples, 3 compounds total:
test smiles | system | reading
COC(=O)c1nc(-c2ccc(Br)c3c2OC(F)(F)O3)c(F)c(N)c1Cl | Wheat and Barley and weed species | 63 g ai/ha
Nc1c(F)c(-c2ccc3c(c2F)OC(F)(F)O3)nc(C(=O)O)c1Cl | Wheat and Barley and weed species | 65 g ai/ha
Nc1c(F)c(-c2ccc(Cl)c3c2OC(F)(F)O3)nc(C(=O)O)c1Cl | Wheat and Barley and weed species | 18 g ai/ha

Shift focus to the following entry.
Form field GR50 MATCH for item Nc1c(F)c(-c2cc3c(cc2F)OC(F)(F)O3)nc(C(=O)O)c1Cl on Wheat and Barley and weed species: 58 g ai/ha

----------
System: Key Grass and Sedge Weeds as well as Grass Crops
Assay: Post-Emergent Test II: postemergent herbicidal activity, visual rating after 14 d (Table 8)
Type: in vivo
Settings: post-emergence, 336 h, giant foxtail (Setaria faberi), 35 g ai/ha, read-out: Visual Growth Reduction (%) 14 Days After Application SETFA
Reported pest or weed control at 35 g/ha values follow for various compounds

compound | pest or weed control at 35 g/ha
COc1c(C(=O)O)nc(-c2cc3c(cc2F)OC(F)(F)O3)c(F)c1N [Compound 23] | 60 to 74%
COC(=O)c1nc(-c2ccc3c(c2)OC(F)(F)O3)c(F)c(N)c1Cl [Compound 6] | 60 to 74%
COC(=O)c1nc(-c2ccc(I)c3c2OC(F)(F)O3)c(F)c(N)c1Cl [Compound 79] | 0 to 29%

Form field pest or weed control at 35 g/ha for item COC(=O)c1nc(-c2ccc3c(c2)OC(F)(F)O3)c(Cl)c(N)c1Cl [Compound 1] on Key Grass and Sedge Weeds as well as Grass Crops: 0 to 29%

Form field pest or weed control at 35 g/ha for item Nc1nc(-c2cc3c(cc2F)OC(F)(F)O3)nc(C(=O)O)c1Cl [Compound 57] on Key Grass and Sedge Weeds as well as Grass Crops: 45 to 59%

Form field pest or weed control at 35 g/ha for item COC(=O)c1nc(-c2cc3c(cc2F)OC(F)(F)O3)nc(N)c1Cl [Compound 56] on Key Grass and Sedge Weeds as well as Grass Crops: 60 to 74%

Form field pest or weed control at 35 g/ha for item Nc1cc(-c2ccc3c(c2Cl)OC(F)(F)O3)nc(C(=O)O)c1Cl [Compound 34] on Key Grass and Sedge Weeds as well as Grass Crops: 75 to 84%

Form field pest or weed control at 35 g/ha for item Nc1c(F)c(-c2cc3c(cc2F)OC(F)(F)O3)nc(C(=O)O)c1Cl [Compound 13] on Key Grass and Sedge Weeds as well as Grass Crops: 75 to 84%

Form field pest or weed control at 35 g/ha for item COc1c(N)nc(-c2ccc3c(c2)OC(F)(F)O3)nc1C(=O)O [Compound 63] on Key Grass and Sedge Weeds as well as Grass Crops: 75 to 84%

Form field pest or weed control at 35 g/ha for item C=Cc1c(C(=O)O)nc(-c2cc3c(cc2F)OC(F)(F)O3)c(F)c1N [Compound 28] on Key Grass and Sedge Weeds as well as Grass Crops: 0 to 29%
